System: L1210 leukemia ip in BDF1 mice, survival T/C
testName: NCI In Vivo Anticancer Drug Screen. Data for tumor model L1210 Leukemia (intraperitoneal) in B6D2F1 (BDF1) mice
settings: endpoint: mean survival time; dose: 100.0 mg/kg/injection; schedule: Q04DX003 (ip); vehicle: gum acacia; higher = longer survival
Toxic doses and inconclusive results are not listed.
propertyMeasured: T/C

For orientation, consider the following solved cases.
[[record]]
molecule = "CNC(=S)NNc1ccccc1"
result = "98 % of control"

[[record]]
molecule = "CC(C)CC(=O)CC(Cl)(C(F)(F)F)C(F)(F)F"
result = "100 % of control"

[[record]]
molecule = "Cc1cc([N+](=O)[O-])c(Cl)cc1N"
result = "93 % of control"

[[record]]
molecule = "CC(=O)Nc1cccc2cc(O)ccc12"
result = "98 % of control"

[[record]]
molecule = "CC1Oc2ccccc2-c2c(-c3ccccc3)nnc(-c3ccccc3)c21 (stereo unspecified)"
result = "95 % of control"


Now turn to the next molecule.
INPUT: Quick one: give measured T/C for `O=C(O)Cc1ccc(I)cc1`
OUTPUT: 98 % of control

The reported numbers originate from PubChem BioAssay AID248.
